# testName: Test 11 acute toxicity test (oral), mouse
# Set-up: species or system mouse (B6 C3 F1)
# protocolConditions: in vivo, male
endpointLabel: LD50

INSERT INTO measurements (compound, endpointlabel, valuereported) VALUES
  ('CC(C)=CC(=O)OCC1=CC2C(=O)OC3CC(CC=C(C)CC(C)C=CC=C4COC(C1O)C42O)OC1(CCC(C)C(C)O1)C3 (stereo not drawn)', 'LD50', '> 5000 mg/kg'),
  ('CC1=CCC2CC(CC3(CCC(C)C(C)O3)O2)OC(=O)C2C=C(COC(=O)CC(C)C)C(O)C3OCC(=CC=CC(C)C1)C23O (stereo not drawn)', 'LD50', '> 5000 mg/kg'),
  ('CCC1OC2(CCC1C)CC1CC(CC=C(C)CC(C)C=CC=C3COC4C(O)C(COC(=O)C=C(C)C)=CC(C(=O)O1)C34O)O2 (stereo not drawn)', 'LD50', '> 5000 mg/kg');

* * *

# System: microfilariae of Dirofilaria immitis
# testName: microbe, parasite or virus in culture
# protocolConditions: 240 h, read-out: LD50
Rule: measured LC50 below 3 µg/mL gets label 1; anything equal to or greater than 3 µg/mL gets label 0.

INSERT INTO assay_data (molecule, experimentaltarget, category) VALUES
  ('CC1=CCC2CC(CC3(CCC(C)C(C)O3)O2)OC(=O)C2C=C(COC(=O)CCC(C)C)C(O)C3OCC(=CC=CC(C)C1)C23O (stereo not drawn) [KSB-1939H5]', 'microfilariae of Dirofilaria immitis', 'label 1'),
  ('CCC1OC2(CCC1C)CC1CC(CC=C(C)CC(C)C=CC=C3COC4C(O)C(COC(=O)C=C(C)C)=CC(C(=O)O1)C34O)O2 (stereo not drawn) [KSB-1939S5]', 'microfilariae of Dirofilaria immitis', 'label 0'),
  ('CC(C)=CC(=O)OCC1=CC2C(=O)OC3CC(CC=C(C)CC(C)C=CC=C4COC(C1O)C42O)OC1(CCC(C)C(C)O1)C3 (stereo not drawn) [KSB-1939H2]', 'microfilariae of Dirofilaria immitis', 'label 0'),
  ('CC1=C[C@H]2C(=O)O[C@H]3C[C@@H](C/C=C(\C)C[C@@H](C)/C=C/C=C4\CO[C@H]([C@@H]1O)[C@@]42O)O[C@@]1(CC[C@H](C)[C@@H](C(C)C)O1)C3 [Milbemycin D, reference compound]', 'microfilariae of Dirofilaria immitis', 'label 0'),
  ('CC1=CCC2CC(CC3(CCC(C)C(C)O3)O2)OC(=O)C2C=C(COC(=O)CC(C)C)C(O)C3OCC(=CC=CC(C)C1)C23O (stereo not drawn) [KSB-1939H3]', 'microfilariae of Dirofilaria immitis', 'label 1'),
  ('CCC(C)=CC(=O)OCC1=CC2C(=O)OC3CC(CC=C(C)CC(C)C=CC=C4COC(C1O)C42O)OC1(CCC(C)C(C)O1)C3 (stereo not drawn) [KSB-1939H4]', 'microfilariae of Dirofilaria immitis', 'label 0');

* * *

Entries annotated with measured mortality at 5 ppm
# Tested on: Brown Rice Planthopper
# testName: Test 3 insecticidal test against brown rice planthopper
# Format: in vivo, Nilaparvata lugens Stal
# protocolConditions: 120 h; 5 ppm; larvae, 5 days, 25° C.
endpointLabel: mortality at 5 ppm (%)

INSERT INTO results (molecule, endpointlabel, unitlabel, valuereported) VALUES
  ('CCC1OC2(CCC1C)CC1CC(CC=C(C)CC(C)C=CC=C3COC4C(O)C(COC(=O)C=C(C)C)=CC(C(=O)O1)C34O)O2 (stereo not shown) [KSB-1939S5]', 'mortality at 5 ppm', '%', 100),
  ('CC(C)=CC(=O)OCC1=CC2C(=O)OC3CC(CC=C(C)CC(C)C=CC=C4COC(C1O)C42O)OC1(CCC(C)C(C)O1)C3 (stereo not shown) [KSB-1939H2]', 'mortality at 5 ppm', '%', 100),
  ('CCC(C)=CC(=O)OCC1=CC2C(=O)OC3CC(CC=C(C)CC(C)C=CC=C4COC(C1O)C42O)OC1(CCC(C)C(C)O1)C3 (stereo not shown) [KSB-1939H4]', 'mortality at 5 ppm', '%', 100),
  ('CC1=CCC2CC(CC3(CCC(C)C(C)O3)O2)OC(=O)C2C=C(COC(=O)CC(C)C)C(O)C3OCC(=CC=CC(C)C1)C23O (stereo not shown) [KSB-1939H3]', 'mortality at 5 ppm', '%', 65);

Values from patent US5091311A
